Field: sfGFP reporter fluorescence. Provide a value for each of the variants that follow.
B1: library; a variant is named by its letters at X, in order (parent)
chain: MNIQIGELAKRTACPVVTIRFYEQEGLLPPPGRSRGNFRLYGEEHVERLQFIRHCRSLDMPLSDVRTLLSYRKRPDQDCGEVXMLLDEHIRQVESRIGALLELKHHLVELREACSGARPAQSCGILQXLSXCVCXTRGTTAHXSD

# Variants of: B1
# assay-explanation: sfGFP reporter fluorescence (15 h) (µM FITC); higher = stronger transcriptional activation
# conditions: library round: Round 2; ligand: 1 µM Pb
One number for each entry.

Solved entries (count: 3):
- mutation-name: "NGDDP D87E S95A K104V R111A"
  sfGFP reporter fluorescence: 0.0918
- mutation-name: "NGDDP P61N L107C C134I"
  sfGFP reporter fluorescence: 2.54
- mutation-name: "TGDDP R96A K104V L107I"
  sfGFP reporter fluorescence: 0.0483

Provide the reported sfGFP reporter fluorescence of each entry below, same order.
1. TIDDP L107C E109H
2. TGSDY Q121A
3. TGCAP Q121A
4. NGSRP L126I
5. NGAAP L107C
6. TIDDP P61N D64K

1. 1.19
2. 0.0961
3. 0.0978
4. 0.0457
5. 2.29
6. 0.617
